test: Acute toxicity of L-carnosine (peritoneal and oral); type: in vivo; details: mouse, in vivo, 15000 mg/kg; oral 15,000 mg/kg; after 12 hours; read-out: mice died
experimental.endpoint: mortality at 12 h (%)

{"sample.smiles": "NCCC(=O)N[C@@H](Cc1cnc[nH]1)C(=O)O", "experimental.endpoint": "mortality at 12 h", "test.value": 10}
